Taken from BigSolDB 2.1.

- Test Settings: in isopentanol, 293.25 K
Reported Endpoint: solubility (mole fraction)

* CC(N)=S | 0.0796

---

- Test Settings: in n-propanol, 293.25 K
Reported Endpoint: solubility (mole fraction)

- CC(N)=S: 0.106

---

- Test Settings: in 2-butanone, 282.55 K
Reported Endpoint: solubility (mole fraction)

* CC(N)=S | 0.167

---

- Test Settings: in ethanol, 318.25 K
Reported Endpoint: solubility (mole fraction)

* CC(N)=S | 0.243

---

- Test Settings: in methyl acetate, 282.55 K
Reported Endpoint: solubility (mole fraction)

* CC(N)=S | 0.0815

---

- Test Settings: in n-pentanol, 277.95 K
Reported Endpoint: solubility (mole fraction)

* CC(N)=S | 0.0598
